Where do these numbers come from? They come from patent US20250313612A1.

- subject of test: T1, RSV F ectodomain stabilized in the postfusion conformation (F ΔFP), subtype B (Respiratory syncytial virus subtype B, UniProt P13843 26-109; P13843 147-524)
- T1 construct: extracellular domain; trimer; also called Postfusion subtype B; postF subtype B
- protocol notes: BLI, IgG on AHQ sensor, 100 nM antigen
# Kd annotations
Please reply with the bare figure in nM and do not write the unit itself.

// solved cases for Kd follow
ADI-14510 (antibody, V domains shown, full-length IgG (yeast-expressed); also called Antibody Number 71; Ab# 71) VH: QVQLQQWGAEVKKPGSSVKVSCKASGVALSSVAISWVRQAPGQGLEWMGGILPGFDKVRFAQEFENRATLTADTARDIAYMELSGLRSDDTAVYYCAIIDPQDCTSASCFWVNWLDPWGQGTLVTVSS VL: ETTLTQSPGTLTVSPGERATLSCRASQSIIRNNLAWYQQKPGQAPRLLIYAASNRATDIPDRFSGSGSGTDFTLTISRLEAQDFAVYFCQQYGTSPITFGQGTKVEIK :: 0.619
ADI-14484 (antibody, V domains shown, full-length IgG (yeast-expressed); also called Antibody Number 45; Ab# 45) VH: QVTLKESGPALVRPKQTLTLTCSFSGFSLDTQRTGVNWIRQSPGKALEWLARIDWDGNIYSSTSVRTKLSISKGTSKNQVVLTMTDVDPVDTATYYCARTLYYTSGGYYLNLFDYWGQGTLVTVSS VL: EIVMTQSPPSLSASVGDRVTITCRASQTIPSYVNWYQQISGKAPRLLIYAASLLQSGVPSRFSGSGSGTEFSLTISGLRPEDFGTYYCQQSYSSTPTFGQGTRLEIK :: 0.394
ADI-14522 (antibody, V domains shown, full-length IgG (yeast-expressed); also called Antibody Number 82; Ab# 82) VH: EVQLVESGAEVKKPGDSVKVSCRASGYSFTGPFLHWVRQAPGQRLEHMGWINPRSGETKYAQSFLGRVTMTRDTSIRSATLELSSLRSDDTAVYYCARDLYSSGWLDNWGQGTLVTVSS VL: ETTLTQSPATLSVSPGERATLSCRASQGLSSNLAWYQHKPGQAPRLLVYGVATRATGVPARFSGSGSGTEFTLTISSLQSDDFALYYCHQYNDWPYTFGQGTKLEIK :: 1.06
ADI-14511 (antibody, V domains shown, full-length IgG (yeast-expressed); also called Antibody Number 72; Ab# 72) VH: EVQLLESGAEVKKPGSSVKVSCKVAGGTFSDYAISWVRQAPGQGLEYLGGIIPAFKRAMYPRKFQDRVTITADESTSTAYMELRGLRSEDTALYYCARPAGDFGDLKWLRSPFDYWGQGTLVTVSS VL: DIVLTQSPATLSVSPGERATLSCRASEGVGINLAWYQQKPGQAPRLLIYGASTRATDIPARFSGSGSGTDFTLTISSLQSEDFAVYYCQQYNDWPPQLTFGPGTKVDIK :: 1.25
ADI-14452 (antibody, V domains shown, full-length IgG (yeast-expressed); also called Antibody Number 15; Ab# 15) VH: QVQLVQSGAEVKKPGSSVKVSCEASGDTFTSYAVIWVRQAPGQGLEWMGSIIPIFQTINYAPKFQGRVTLSADGSTRTVYMELGSLRSEDTAIYFCATKRYCTSPSCHGLWYFNLWGRGTLVTVSS VL: DIVMTQSPLSLPVTPGEPASISCRSSKSLLDSDDGNTYLDWYLQKPGQSPQILIYMLSHRASGVPDRFSGSGSGTDFTLKISRVEAEDVGVYYCMQRVEYPYSFGQGTKVEIK :: 0.139
ADI-14475 (antibody, V domains shown, full-length IgG (yeast-expressed); also called Antibody Number 37; Ab# 37) VH: QVQLVQSGPALVKPTQTLTLTCTFSGFSLTTARMCVSWIRQPPGKALEWLARIDWDDDKSYSTSLKTRLTIAKDTSKNQVVLTMTNMGPADTATYYCVRTPIYASGGYYLSYFDSWGQGTLVTVSS VL: DIVMTQSPSSLSASVGDSVTITCRASQTIASYVNWYQHKPGQAPNLLIYAASILHSGVPSRFRGGGSGTDFTLTINSLQPEDFATYYCQQSYSTPYTFGQGTKVDIK :: 0.242
ADI-14443 (antibody, V domains shown, full-length IgG (yeast-expressed); also called Antibody Number 6; Ab# 6) VH: QVQLVQSGTEVKKPGSSVKVSCKASGGTFGSYAVIWVRQAPGQGLEWMGHFIPVFATTNKAQKFQGRLTLSTDESTGTVYMELSSLRSEDTAVYFCATKRYCSDPSCHGLWYFDLWGRGTLVTVSS VL: DIQLTQSPLSLPVTPGEPASISCRSSQSLLDSDDGNTYLDWYLQKPGQSPQVLIYMLSYRASGVPDRFSGSGSGTDFTLEISRVEAEDVGVYYCMQRVEFPYTFGQGTKLEIK :: 0.137
ADI-14495 (antibody, V domains shown, full-length IgG (yeast-expressed); also called Antibody Number 56; Ab# 56) VH: QITLKESGPTLVKPTQTLTLTCSFSGFSLTTRGVGVGWVRQPPGKALECLGFVYWDDDKRYSPSLRSRLTISEDTSKNQVVLTMTNMDPLDTATYYCVHSDLYDRGGYYLFYFDYWGQGTLVTVSS VL: DIVLTQSPSSLSASVGDRVTITCRASQPIASYLNWYQHKPGKAPKLLIYAASSLQSGVSSTFSGRGSGTDFTLTITALQPEDFAIYYCQQSYTFPYTFGQGTKVDIK :: 1.71

// query I am curious: what Kd value has been reported for ADI-14524 (antibody, V domains shown, full-length IgG (yeast-expressed); also called Antibody Number 84; Ab# 84) VH: EVQLVESGGGLVQPGGSLRLSCAASGFSFSDYSMNWVRQAPGKGLEWVSYITPSSRNKFYADSVRGRFTISRDNAENSLYLQMNSLRVEDTAVYYCVRSLHWGAAIERWDVWGQGTTVTVSS VL: EIVLTQSPGTLSLSPGERATLSCRASQSISSSFFAWYQQTPGQAPRLLMYATSSRATGIPDRFSGSGSGTDFTLTISRVEPEDFAVYYCQQSGSSPYTFGQGTKVEIK ?
// result 0.771

// query Same question, ADI-14468 (antibody, V domains shown, full-length IgG (yeast-expressed); also called Antibody Number 31; Ab# 31) VH: QVQLVQSGPTLVRPTQTLTLTCTFSGFSLSTRGVGVGWVRQSPGKAPEFLVLAHWDDDKIYSPSLRRRLSVTKDVSKNQVVLALTNVDPVDTGTYFCVKSDLYDRGGYYLYYFDHWGQGTLVTVSS VL: DIRMTQSPSSLSASVGDRVTITCRASQTIASYVNWYLQRPGEAPKLLIYAASNLHSGAPPSLIGRGSGTDFTLTINTLQPEHFGTYFCQQTFSSPYTFGQGTKVEIK this time
// result 0.241
